Assay target: A*6801 (Homo sapiens, UniProt P04439, A269V/D185E/E176V/E277Q/E87N/F33Y/G231S/I121M/I166T/I218V/L180W/L300P/L318F/N151K/P208A/P217A/Q86R/R169H/T345S)
Assay details: biochemical
Format: binding
No end group written: not given here.
Metric name: pIC50
Keep in mind that pIC50 stands for -log10 of concentration in molar terms.

Ask: Please report the measured pIC50 for KVSPIVHLK [Peptide 1589.42]
Reply: 7.60

Ask: Please report the measured pIC50 for QVLHLLKRK [Peptide 88.0365]
Reply: 6.10

Ask: Please report the measured pIC50 for SVYGTTLEK [Peptide 78.0282]
Reply: 7.82

Ask: Please report the measured pIC50 for ITVYYGVPVWR [Peptide 1525.06]
Reply: 8.27

Ask: Please report the measured pIC50 for EFVSFLSALK [Peptide 1587.36]
Reply: 7.66

Ask: Please report the measured pIC50 for FIHFRIGCR [Peptide 9017.0112]
Reply: 7.17

Ask: Please report the measured pIC50 for CTELKLVYR [Peptide 78.0334]
Reply: 5.88

Ask: Please report the measured pIC50 for AIVVWTIAY [Peptide 9017.0115]
Reply: 5.14

Ask: Please report the measured pIC50 for HIGPGRAFY [Peptide 1595.03]
Reply: 7.54

Ask: Please report the measured pIC50 for NSNAAAFLR [Peptide 88.0387]
Reply: 7.70

Ask: Please report the measured pIC50 for DFISFLSYFK [Peptide 88.0188]
Reply: 8.82

Ask: Please report the measured pIC50 for CFYSPALNK [Peptide 1556.43]
Reply: 5.84

Ask: Please report the measured pIC50 for IVVSAELPK [Peptide 1556.19]
Reply: 6.66

Ask: Please report the measured pIC50 for WFYVQAIVDK [Peptide 88.0140]
Reply: 4.71

Ask: Please report the measured pIC50 for AFDLSHFLK [Peptide 9017.0063]
Reply: 6.67

Ask: Please report the measured pIC50 for NVCVSWKYK [Peptide 88.0383]
Reply: 6.20

Ask: Please report the measured pIC50 for GTAKSVTCTR [Peptide 1556.31]
Reply: 6.68

Ask: Please report the measured pIC50 for EFTAFLGAFK [Peptide 88.0167]
Reply: 6.71

Ask: Please report the measured pIC50 for STWHWTSDNK [Peptide 1589.22]
Reply: 7.74

Ask: Please report the measured pIC50 for SLKCLRYRLK [Peptide 88.0217]
Reply: 4.90

Ask: Please report the measured pIC50 for YSVYGTTLEK [Peptide 78.0054]
Reply: 7.44

Ask: Please report the measured pIC50 for MLIRYTCGK [Peptide 88.0377]
Reply: 7.82

Ask: Please report the measured pIC50 for ETNEALELK [Peptide 1556.68]
Reply: 5.84

Ask: Please report the measured pIC50 for NTNAGTDPR [Peptide 88.0372]
Reply: 7.30

Ask: Please report the measured pIC50 for GILRQRRAR [Peptide 9017.0114]
Reply: 5.83

Ask: Please report the measured pIC50 for WTIVYIEYR [Peptide 9017.0117]
Reply: 7.77

###

Assay target: HLA-A11 (A*1101) (Homo sapiens, UniProt P04439, A114D/D185E/E176A/F33Y/L180Q/S129P/T187R)
Assay details: biochemical
Type: binding
No end group written: not given here.
Metric name: IC50 (µM)
Use µM as the unit, but write only the number.

Ask: Please report the measured IC50 for KLCLRFLSK [Peptide 1571.20]
Reply: 0.279

Ask: Please report the measured IC50 for ISWLGLRSLK [Peptide 9012.0234]
Reply: 0.018

Ask: Please report the measured IC50 for FLSALKLFLK [Peptide 1587.38]
Reply: 0.165

Ask: Please report the measured IC50 for AILGHIVRPR [Peptide 9017.0226]
Reply: 0.16

Ask: Please report the measured IC50 for NTMDYTNWK [Peptide 88.0425]
Reply: 0.019

Ask: Please report the measured IC50 for VVVKSPNHVK [Peptide 9012.0255]
Reply: 0.088

Ask: Please report the measured IC50 for TALIKPKKR [Peptide 9017.0102]
Reply: 2.73

Ask: Please report the measured IC50 for GVLILALLR [Peptide 88.0338]
Reply: 0.056

Ask: Please report the measured IC50 for MLIRYTCGK [Peptide 88.0377]
Reply: 0.014

Ask: Please report the measured IC50 for GTMCRHYKR [Peptide 1587.34]
Reply: 0.031

Ask: Please report the measured IC50 for GTRQARKNRR [Peptide 9017.0200]
Reply: 2.92

Ask: Please report the measured IC50 for NSNAAAFLR [Peptide 88.0387]
Reply: 0.213

Ask: Please report the measured IC50 for KLNWASQIY [Peptide 1595.09]
Reply: 0.95

Ask: Please report the measured IC50 for LVYQDTILWK [Peptide 9012.0221]
Reply: 0.032

Ask: Please report the measured IC50 for SFMELVRPFK [Peptide 88.0163]
Reply: 0.199

Ask: Please report the measured IC50 for TVSATQLVK [Peptide 1589.08]
Reply: 0.0044

Ask: Please report the measured IC50 for VSIEWRLRR [Peptide 9017.0088]
Reply: 0.0069

Ask: Please report the measured IC50 for QQMFLGTVK [Peptide 88.0415]
Reply: 0.022

Ask: Please report the measured IC50 for MLIEPPKLR [Peptide 88.0366]
Reply: 2.88

Ask: Please report the measured IC50 for KVSEFRWYR [Peptide 78.0281]
Reply: 0.015

Ask: Please report the measured IC50 for TVQVYFDGNK [Peptide 88.0202]
Reply: 0.014

Ask: Please report the measured IC50 for MTLESILRR [Peptide 9012.0215]
Reply: 0.014

Ask: Please report the measured IC50 for FTDLRIVYR [Peptide 1550.08]
Reply: 10.5

Ask: Please report the measured IC50 for AAFDLSFFLK [Peptide 9017.0189]
Reply: 0.0023

Ask: Please report the measured IC50 for LLQAVRIIK [Peptide 9017.0068]
Reply: 0.326

Ask: Please report the measured IC50 for GVVFGILIKK [Peptide 9012.0242]
Reply: 0.017

Ask: Please report the measured IC50 for KQMSMSQWIK [Peptide 1587.09]
Reply: 0.017

Ask: Please report the measured IC50 for EVLMWKFDSR [Peptide 9017.0192]
Reply: 7.63

Ask: Please report the measured IC50 for STVSVGTAK [Peptide 1589.09]
Reply: 0.006
